Tested on: varicella zoster virus (VZV) (strains OKa and YS)
test_details: microbe, parasite or virus in culture
Assay type: cell-based
details: Table III; measured as under examples 1 to 6; read-out: EC50/VZV/μM
experimental_readout: EC50 (µM)
One number for each entry, in µM.

{"columns": ["compound", "EC50 / µM"],
 "data": [
  ["O=c1nc2oc(CCCCCCCCCCl)cc2cn1C1CC(O)C(CO)O1 (centres unmarked) [Example 8]", 0.006]
]}

Using varicella zoster virus (VZV) (strains OKa and YS) as the test system, report measured EC50 of O=c1nc2oc(CCCCCCCCCO)cc2cn1[C@H]1C[C@H](O)[C@@H](CO)O1 [Example 7] . 0.4
